system: UACC-257 melanoma; test: NCI-60 one-dose screen, 48 h; conditions: 100 µM
About 83,000 compounds went through this panel and 20% of them were active in at least one assay; those are over-represented in the sample as a whole. Calls of active or inactive are those of the source. The calls were made as follows: active = growth percent below 10; inactive = the rest.
A correct response names exactly one class from class 1 = active, class 0 = inactive

Record excerpt, results attached:
COc1ccc(C(=O)/C=C/c2ccc(OCc3cccc(C(F)(F)F)c3)c(OC)c2)cc1OC: class 0
CCN(Cc1ccccc1)c1ccc(/C=C2\COc3ccccc3C2=O)cc1: class 0
O=C(/C=C/c1cccc(Oc2ccc(Cl)cc2)c1)c1ccccc1: class 1

Each molecule tested received a call. Report the one for CC(=O)/C=C/c1ccc(OCc2ccc(Cl)cc2)cc1 .
class 1

What did the test return for CC(=O)/C=C/c1ccc(N(CCO)Cc2ccc(C(C)(C)C)cc2)cc1 ?
class 1
